Numbers sourced from the supplement of paper PMC5998384.

Tested on: HeLa Kyoto;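 note: HeLa Kyoto cells arrested at G1/S by double thymidine block, proteins quantified by TMT10plex mass spectrometry in mild NP-40 versus SDS extracts, three biological replicates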
TEST_METHOD_NOTES: solubility in G1/S (NP-40 vs SDS abundance) (log2 ratio); higher = more soluble
CONDITION_DESCRIPTION: cell cycle stage: G1/S
Everything with solubility in G1/S (log2) lower than 0.1 is 0.0; everything else, including exactly 0.1, is 1.0.

For this sequence, is measured solubility in G1/S (log2) 0.1 or higher? MGGKLSKKKKGYNVNDEKAKEKDKKAEGAATEEEGTPKESEPQAAAEPAEAKEGKEKPDQDAEGKAEEKEGEKDAAAAKEEAPKAEPEKTEGAAEAKAEPPKAPEQEQAAPGPAAGGEAPKAAEAAAAPAESAAPAAGEEPSKEEGEPKKTEAPAAPAAQETKSDGAPASDSKPGSSEAAPSSKETPAATEAPSSTPKAQGPAASAEEPKPVEAPAANSDQTVTVKE [BASP1] 0.0

Could you verify whether the entry MAMNYNAKDEVDGGPPCAPGGTAKTRRPDNTAFKQQRLPAWQPILTAGTVLPIFFIIGLIFIPIGIGIFVTSNNIREIEIDYTGTEPSSPCNKCLSPDVTPCFCTINFTLEKSFEGNVFMYYGLSNFYQNHRRYVKSRDDSQLNGDSSALLNPSKECEPYRRNEDKPIAPCGAIANSMFNDTLELFLIGNDSYPIPIALKKKGIAWWTDKNVKFRNPPGGDNLEERFKGTTKPVNWLKPVYMLDSDPDNNGFINEDFIVWMRTAALPTFRKLYRLIERKSDLHPTLPAGRYSLNVTYNYPVHYFDGRKRMILSTISWMGGKNPFLGIAYIAVGSISFLLGVVLLVINHKYRNSSNTADITI [TMEM30A] shows solubility in G1/S (log2) of no less than 0.1? 1.0

Can MAPMGIRLSPLGVAVFCLLGLGVLYHLYSGFLAGRFSLFGLGGEPGGGAAGPAAAADGGTVDLREMLAVSVLAAVRGGDEVRRVRESNVLHEKSKGKTREGAEDKMTSGDVLSNRKMFYLLKTAFPSVQINTEEHVDAADQEVILWDHKIPEDILKEVTTPKEVPAESVTVWIDPLDATQEYTEDLRKYVTTMVCVAVNGKPMLGVIHKPFSEYTAWAMVDGGSNVKARSSYNEKTPRIVVSRSHSGMVKQVALQTFGNQTTIIPAGGAGYKVLALLDVPDKSQEKADLYIHVTYIKKWDICAGNAILKALGGHMTTLSGEEISYTGSDGIEGGLLASIRMNHQALVRKLPDLEKTGHK [IMPAD1] be said to have solubility in G1/S (log2) at or above 0.1? 1.0

Hi, just wondering whether MRPLLGLLLVFAGCTFALYLLSTRLPRGRRLGSTEEAGGRSLWFPSDLAELRELSEVLREYRKEHQAYVFLLFCGAYLYKQGFAIPGSSFLNVLAGALFGPWLGLLLCCVLTSVGATCCYLLSSIFGKQLVVSYFPDKVALLQRKVEENRNSLFFFLLFLRLFPMTPNWFLNLSAPILNIPIVQFFFSVLIGLIPYNFICVQTGSILSTLTSLDALFSWDTVFKLLAIAMVALIPGTLIKKFSQKHLQLNETSTANHIHSRKDT [TMEM41A] shows solubility in G1/S (log2) of 0.1 or higher. 0.0

Identify whether the reported solubility in G1/S (log2) of the following sequence is 0.1 or greater: MAGSSEEAPDYGRGVVIMDDWPGYDLNLFTYPQHYYGDLEYVLIPHGIIVDRIERLAKDIMKDIGYSDIMVLCVLKGGYKFCADLVEHLKNISRNSDRFVSMKVDFIRLKSYRNDQSMGEMQIIGGDDLSTLAGKNVLIVEDVVGTGRTMKALLSNIEKYKPNMIKVASLLVKRTSRSDGFRPDYAGFEIPNLFVVGYALDYNEYFRDLNHICVINEHGKEKYRV [PRTFDC1] 0.0
